Assay remarks: Cmax in plasma of female Ncr nude mouse bearing HCT116 tumor xenografts at 10 mg/kg, sc dosed as single administration measured up to 24 hrs post dose
Format: ADME, organism-based
Parameters: dose 10 mg/kg, route subcutaneous
Measured property: Cmax (µM)
Give bare numbers, in µM.

Query string: Note Cmax for the compound shown: CO[C@H]1Cc2cc(Cl)ccc2C1Nc1cc(O[C@@H]2CC(COS(N)(=O)=O)[C@@H](O)C2)ncn1 (single isomer, unassigned)
Result string: 10.4

###

System tested: UniProtKB Q8TBC4
Sequence (Q8TBC4 whole entry): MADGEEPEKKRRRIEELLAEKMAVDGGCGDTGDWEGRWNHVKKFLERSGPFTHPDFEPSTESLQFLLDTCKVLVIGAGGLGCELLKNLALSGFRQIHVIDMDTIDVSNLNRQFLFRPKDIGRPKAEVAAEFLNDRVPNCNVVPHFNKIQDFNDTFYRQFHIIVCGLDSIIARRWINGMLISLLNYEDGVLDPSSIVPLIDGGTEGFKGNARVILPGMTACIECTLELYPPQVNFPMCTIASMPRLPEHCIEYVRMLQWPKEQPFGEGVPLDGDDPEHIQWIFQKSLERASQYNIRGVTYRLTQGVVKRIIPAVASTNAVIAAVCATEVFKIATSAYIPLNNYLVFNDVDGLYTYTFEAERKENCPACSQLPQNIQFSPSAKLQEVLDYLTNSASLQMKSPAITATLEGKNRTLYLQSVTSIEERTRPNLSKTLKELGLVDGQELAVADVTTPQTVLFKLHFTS
Sequence (Q13564 whole entry, further chain): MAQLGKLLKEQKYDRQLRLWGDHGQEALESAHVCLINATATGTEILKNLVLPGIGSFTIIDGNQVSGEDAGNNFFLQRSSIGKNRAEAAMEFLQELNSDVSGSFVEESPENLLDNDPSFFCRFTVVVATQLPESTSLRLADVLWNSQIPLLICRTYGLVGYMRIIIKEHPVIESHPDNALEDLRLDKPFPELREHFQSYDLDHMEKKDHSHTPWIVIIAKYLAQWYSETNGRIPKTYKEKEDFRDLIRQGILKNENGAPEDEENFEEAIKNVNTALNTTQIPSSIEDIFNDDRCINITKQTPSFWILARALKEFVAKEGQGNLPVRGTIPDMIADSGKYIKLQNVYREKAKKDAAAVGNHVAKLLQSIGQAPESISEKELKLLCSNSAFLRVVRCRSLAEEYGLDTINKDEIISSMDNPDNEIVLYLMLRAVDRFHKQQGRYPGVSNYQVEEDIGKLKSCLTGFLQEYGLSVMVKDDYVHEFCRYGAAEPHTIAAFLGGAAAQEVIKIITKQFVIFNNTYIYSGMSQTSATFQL
Assay remarks: Inhibition of recombinant human NAE using GST-tagged Ubc12 and Flag-tagged Nedd8 incubated for 105 mins by HTRF assay
pIC50: −log10 of the molar value.
Measured property: pIC50

COc1ccccc1-c1nc2c(N[C@@H]3C[C@@H](COS(N)(=O)=O)[C@@H](O)C3)ncnc2[nH]1	≥ 6.30

Provide the reported pIC50 of each entry below, same order.
1. NS(=O)(=O)OC[C@H]1C[C@@H](Nc2ncnc(N[C@H]3CCc4ccccc43)n2)[C@H](O)[C@@H]1O
2. Cc1c(N[C@H]2CCc3ccccc32)ncnc1O[C@@H]1C[C@@H](COS(N)(=O)=O)[C@@H](O)C1
3. CO[C@H]1CCc2ccccc2C1Nc1cc(O[C@H]2CC(O)[C@H](COS(N)(=O)=O)C2)ncn1 (single isomer, unassigned)

Result string:
1. ≥ 6.30
2. ≥ 6.30
3. ≥ 6.30

Provide the reported pIC50 of each entry below, same order.
1. CN(C)C(=O)[C@H]1Cc2ccccc2[C@H]1Nc1cc(O[C@@H]2C[C@@H](COS(N)(=O)=O)[C@@H](O)C2)ncn1
2. NS(=O)(=O)OC[C@@H]1C[C@@H](Oc2cc(N[C@H]3CCc4ccccc43)ncn2)C[C@@H]1O
3. COc1cccc(-c2nc3c(N[C@@H]4C[C@@H](COS(N)(=O)=O)[C@@H](O)C4)ncnc3[nH]2)c1OC
4. NS(=O)(=O)OC[C@@H]1C[C@@H](Nc2ncnc3[nH]c(-c4ccc(Cl)cc4)nc23)C[C@@H]1O

Result string:
1: 5.00 to 6.30; 2: < 5.00; 3: ≥ 6.30; 4: ≥ 6.30
